Data provenance is ChEMBL document CHEMBL3433997.

Entries and their measured inhibition follow.
measuredTarget: Hexose transporter 1 (Plasmodium falciparum) (UniProt O97467)
experimentNotes: ST_JUDE_LEISH: Cytotoxicity at 2uM final concentration against transgenic Leishmania Mexicana promastigotes LmPfHT that are glucose transport deficient and complemented with the Plasmodium falciparum hexose transporter. Activity is measured by DNA content using SYBR green in vitro
Type: functional

compound	measuredTarget	inhibition, %
CC(C)(CN)c1nc(-c2ccc(Cl)c(O)c2)c(-c2ccnc(N)n2)[nH]1	Hexose transporter 1 (Plasmodium falciparum) (UniProt O97467)	-0.81
CCc1cc(Br)c2c(c1)C(NCCCNc1cc(=O)c3ccccc3[nH]1)CCN2 (stereo not drawn)	Hexose transporter 1 (Plasmodium falciparum) (UniProt O97467)	2.76
COc1ccc(CC2(c3ccc(F)cc3)N=C(N)N(CCCc3ccccc3)C2=O)cc1 (stereo not drawn)	Hexose transporter 1 (Plasmodium falciparum) (UniProt O97467)	5.5
COc1ccc(CN2CCCN(Cc3cccc(NC(=O)c4ccc(Cl)c(Cl)c4)c3)CC2)cc1	Hexose transporter 1 (Plasmodium falciparum) (UniProt O97467)	4.62
N#Cc1cccc(C(=O)N2CCOC(CCN3CCC(c4ccccc4)CC3)(c3ccc(Cl)c(Cl)c3)C2)c1 (stereo not drawn)	Hexose transporter 1 (Plasmodium falciparum) (UniProt O97467)	2.24
COc1ccc2nc3cc(Cl)ccc3c(N)c2c1	Hexose transporter 1 (Plasmodium falciparum) (UniProt O97467)	10
Oc1c(C=Nn2cnnc2)sc2ccccc12	Hexose transporter 1 (Plasmodium falciparum) (UniProt O97467)	5.61
CS(=O)(=O)c1ccc(CNCc2ccc(-c3cccc(-c4nc5ccccc5[nH]4)c3)cc2)cc1	Hexose transporter 1 (Plasmodium falciparum) (UniProt O97467)	15.6
N=c1n(CCN2CCCC2)c2ccccc2n1CC(O)c1ccc(Cl)c(Cl)c1 (stereo not drawn)	Hexose transporter 1 (Plasmodium falciparum) (UniProt O97467)	1.57
Cc1cccc2nc(-c3cccc(-c4cccc(NC(=O)Nc5ccccc5)c4)c3)[nH]c12	Hexose transporter 1 (Plasmodium falciparum) (UniProt O97467)	3.36
COc1cc2c(=O)c(Cc3ccc(Cl)cc3)c(C)[nH]c2cc1F	Hexose transporter 1 (Plasmodium falciparum) (UniProt O97467)	3.31
Cc1cc(Oc2cc(NC(=O)c3sc4ncn(Cc5ccccc5F)c(=O)c4c3C)cc([N+](=O)[O-])c2)ccc1Cl	Hexose transporter 1 (Plasmodium falciparum) (UniProt O97467)	1.84
CN(C)c1ccc(-c2ccc(C(=O)NC3CCN(Cc4ccc(C(C)(C)C)cc4)CC3)s2)cc1	Hexose transporter 1 (Plasmodium falciparum) (UniProt O97467)	1.51
COc1ccc2nccc(N3CCC(SCCNS(=O)(=O)c4ccc5c(c4)OCCO5)C3)c2n1 (stereo not drawn)	Hexose transporter 1 (Plasmodium falciparum) (UniProt O97467)	3.57
O=c1cc(NCCCNCc2cccc(Oc3ccccc3)c2)[nH]c2ccccc12	Hexose transporter 1 (Plasmodium falciparum) (UniProt O97467)	2.68
Cc1cccc2nc(-c3ccc(-c4cccc(CNCc5ccccc5)c4)cc3)[nH]c12	Hexose transporter 1 (Plasmodium falciparum) (UniProt O97467)	9.57
OC(CNc1ccnc(Nc2ccc(Cl)cc2)n1)c1ccc(C(F)(F)F)cc1 (stereo not drawn)	Hexose transporter 1 (Plasmodium falciparum) (UniProt O97467)	4.91
Cc1ccc(Nc2nc(NN=Cc3ccc(-c4ccc([N+](=O)[O-])cc4)o3)nc(N3CCOCC3)n2)cc1Cl	Hexose transporter 1 (Plasmodium falciparum) (UniProt O97467)	-1.96
COc1ccc(-c2ccc(NC(=O)c3ccc(C#N)cc3)cc2)cc1CN(C)CCO	Hexose transporter 1 (Plasmodium falciparum) (UniProt O97467)	0.56
CCOC(=O)C1CCN(CCOc2cc(NC(=O)/C=C/c3ccccc3Cl)ccc2Br)CC1	Hexose transporter 1 (Plasmodium falciparum) (UniProt O97467)	6.51
CC(C)c1ccc(-c2nc3cc(Cl)cnc3[nH]2)cc1	Hexose transporter 1 (Plasmodium falciparum) (UniProt O97467)	3.85
CC(C)(C)OC(=O)N[C@@H](Cc1ccccc1)C(=O)Nc1cccc(-c2cccc(NC(=O)[C@H](Cc3ccccc3)NC(=O)OC(C)(C)C)c2)c1	Hexose transporter 1 (Plasmodium falciparum) (UniProt O97467)	0.21
CNC(=O)/C=C/c1cc(NC(=O)Nc2cc(C)nc3c(F)cccc23)ccc1OC	Hexose transporter 1 (Plasmodium falciparum) (UniProt O97467)	2.38
COc1cccc(C(=O)NC(C=Cc2ccccc2)c2cc(Cl)c3cccnc3c2O)c1 (stereo not drawn)	Hexose transporter 1 (Plasmodium falciparum) (UniProt O97467)	2.04
CC(C)CN(C)Cc1ccc(-c2ccc(-c3nc4ccccc4[nH]3)s2)cc1	Hexose transporter 1 (Plasmodium falciparum) (UniProt O97467)	-0.64
CC(=O)Nc1ccc(CN(Cc2ccc(C)cc2)Cc2cccc(Oc3ccccc3)c2)cc1	Hexose transporter 1 (Plasmodium falciparum) (UniProt O97467)	3.12
O=C(/C=C/c1ccc(Cl)c(Cl)c1)NCCCCCCN1CCN(C(=O)Nc2ccc(OC(F)F)cc2)CC1	Hexose transporter 1 (Plasmodium falciparum) (UniProt O97467)	6.98
CNCCNCc1cccc(-c2cccc(-c3nc4cc(C(F)(F)F)ccc4[nH]3)c2)c1	Hexose transporter 1 (Plasmodium falciparum) (UniProt O97467)	1.32
